# TEST PROTOCOL: Kinetic solubility test in water and bio-relevant media (SGF, FaSSIF, FeSSIF)
# Type: physicochemical
# CONDITION: FeSSIF, 37 °C, pH 5, fessif, thermodynamic from solid, FeSSIF; 1 hour; 37° C.; read-out: S: solubility
MEASURED METRIC: solubility at 1 h (µg/mL)
Give the value in µg/mL but do not write µg/mL after it.

Exercise: What does the data say about its solubility at 1 h? Entry: O=C(O)c1ccc2nc(CN3CC=C(c4cccc(OCc5ccc(Cl)cc5F)c4)CC3)n(C[C@@H]3CCO3)c2c1
Solution: 400

###

Listed next: entries and their corresponding pH.
# TEST PROTOCOL: Kinetic solubility test in water and bio-relevant media (SGF, FaSSIF, FeSSIF)
# Type: physicochemical
# CONDITION: supernatant; SGF; 1 hour
Structures can show the parent of a compound that is named as a salt.

Example molecules with recorded pH:
{"columns": ["MOLECULE", "pH"],
 "data": [
  ["O=C(O)c1ccc2nc(CN3CC=C(c4cccc(OCc5ccc(Cl)cc5F)c4)CC3)n(C[C@@H]3CCO3)c2c1 [Tris salt Form A]", 1.9],
  ["N#Cc1ccc(COc2cccc(C3=CCN(Cc4nc5ccc(C(=O)O)cc5n4C[C@@H]4CCO4)CC3)n2)c(F)c1 [Tris salt Form B]", 1.9],
  ["N#Cc1ccc(COc2cccc(C3=CCN(Cc4nc5ccc(C(=O)O)cc5n4C[C@@H]4CCO4)CC3)n2)c(F)c1 [Compound II]", 1.9]
]}

Proceeding to the next molecule to report its pH.
Exercise: Look up pH for this molecule: N#Cc1ccc(COc2cccc(C3=CCN(Cc4nc5ccc(C(=O)O)cc5n4C[C@@H]4CCO4)CC3)n2)c(F)c1 [Citrate salt Form A]
Solution: 1.9

###

# TEST PROTOCOL: Kinetic solubility test in water and bio-relevant media (SGF, FaSSIF, FeSSIF)
# Type: physicochemical
# CONDITION: SGF, 37 °C, pH 1.8, simulated gastric fluid, thermodynamic from solid, SGF; 4 hours; 37° C.; read-out: S: solubility
Counter-ions that a name gives are not always drawn.
MEASURED METRIC: solubility at 4 h (µg/mL)
Reply with just the number (in µg/mL).

Exercise: For the compound O=C(O)c1ccc2nc(CN3CC=C(c4cccc(OCc5ccc(Cl)cc5F)c4)CC3)n(C[C@@H]3CCO3)c2c1 [Tris salt Form A] , what solubility at 4 h is on record?
Solution: 400

###

# TEST PROTOCOL: Kinetic solubility test in water and bio-relevant media (SGF, FaSSIF, FeSSIF)
# Type: physicochemical
# CONDITION: residual solids by XRPD; FaSSIF; 24 hours
Counter-ions that a name gives are not always drawn.
MEASURED METRIC: FC: form change

{"columns": ["COMPOUND", "RESULT"],
 "data": [
  ["N#Cc1ccc(COc2cccc(C3=CCN(Cc4nc5ccc(C(=O)O)cc5n4C[C@@H]4CCO4)CC3)n2)c(F)c1 [Compound II]", "Yes"],
  ["N#Cc1ccc(COc2cccc(C3=CCN(Cc4nc5ccc(C(=O)O)cc5n4C[C@@H]4CCO4)CC3)n2)c(F)c1 [Tris salt Form B]", "Yes"],
  ["O=C(O)c1ccc2nc(CN3CC=C(c4cccc(OCc5ccc(Cl)cc5F)c4)CC3)n(C[C@@H]3CCO3)c2c1 [Tris salt Form A]", "No"],
  ["N#Cc1ccc(COc2cccc(C3=CCN(Cc4nc5ccc(C(=O)O)cc5n4C[C@@H]4CCO4)CC3)n2)c(F)c1 [Citrate salt Form A]", "Yes"]
]}
